Biological target: α5β1 integrin (Homo sapiens, UniProt P05556+P08648)
Test: K562 cell adhesion to FN
Conditions: read-out: EC50 for agonists, FN/K562 α5β1; increase of cell adhesion; mean ± SD
recorded-metric: pEC50
Scale explanation: pEC50 corresponds to minus log10 of a concentration expressed in moles per litre.

For Cc1ccccc1NC(=O)N1C(=O)CC1CC(=O)NCC(=O)O (stereo not shown) , what is its reported pEC50?
8.01

###

Target: α4β7 integrin (Homo sapiens, UniProt P13612+P26010)
Construct: RPMI8866 cells expressing α4β7 integrin to the ligand MAdCAM-1; endogenous in cells; host or cells: RPMI8866
Sequence (P13612 34-1032): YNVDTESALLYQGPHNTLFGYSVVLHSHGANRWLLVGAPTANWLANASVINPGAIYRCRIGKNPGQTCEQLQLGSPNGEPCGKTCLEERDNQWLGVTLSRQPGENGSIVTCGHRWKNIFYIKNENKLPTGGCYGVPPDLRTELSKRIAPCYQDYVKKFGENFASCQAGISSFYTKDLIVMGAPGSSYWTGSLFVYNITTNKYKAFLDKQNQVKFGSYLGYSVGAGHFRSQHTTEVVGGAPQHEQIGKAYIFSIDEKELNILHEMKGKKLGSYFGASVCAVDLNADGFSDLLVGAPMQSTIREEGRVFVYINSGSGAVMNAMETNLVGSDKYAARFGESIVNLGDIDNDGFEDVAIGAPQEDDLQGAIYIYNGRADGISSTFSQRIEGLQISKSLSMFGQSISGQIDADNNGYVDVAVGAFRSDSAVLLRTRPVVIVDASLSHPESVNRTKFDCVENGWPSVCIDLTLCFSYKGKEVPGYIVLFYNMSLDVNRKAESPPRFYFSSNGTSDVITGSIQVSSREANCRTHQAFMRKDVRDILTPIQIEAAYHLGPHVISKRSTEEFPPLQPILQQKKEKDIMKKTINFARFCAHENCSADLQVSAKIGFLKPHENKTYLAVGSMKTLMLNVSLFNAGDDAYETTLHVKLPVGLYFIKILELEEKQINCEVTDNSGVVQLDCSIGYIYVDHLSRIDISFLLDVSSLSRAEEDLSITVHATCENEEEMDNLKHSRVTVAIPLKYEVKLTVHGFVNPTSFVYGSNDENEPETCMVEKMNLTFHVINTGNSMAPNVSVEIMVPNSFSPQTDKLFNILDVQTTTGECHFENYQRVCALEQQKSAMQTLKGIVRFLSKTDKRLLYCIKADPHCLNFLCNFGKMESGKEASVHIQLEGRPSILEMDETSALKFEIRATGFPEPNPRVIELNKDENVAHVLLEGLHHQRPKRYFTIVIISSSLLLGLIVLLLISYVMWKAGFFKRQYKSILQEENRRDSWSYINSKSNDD
Sequence (P26010 20-798): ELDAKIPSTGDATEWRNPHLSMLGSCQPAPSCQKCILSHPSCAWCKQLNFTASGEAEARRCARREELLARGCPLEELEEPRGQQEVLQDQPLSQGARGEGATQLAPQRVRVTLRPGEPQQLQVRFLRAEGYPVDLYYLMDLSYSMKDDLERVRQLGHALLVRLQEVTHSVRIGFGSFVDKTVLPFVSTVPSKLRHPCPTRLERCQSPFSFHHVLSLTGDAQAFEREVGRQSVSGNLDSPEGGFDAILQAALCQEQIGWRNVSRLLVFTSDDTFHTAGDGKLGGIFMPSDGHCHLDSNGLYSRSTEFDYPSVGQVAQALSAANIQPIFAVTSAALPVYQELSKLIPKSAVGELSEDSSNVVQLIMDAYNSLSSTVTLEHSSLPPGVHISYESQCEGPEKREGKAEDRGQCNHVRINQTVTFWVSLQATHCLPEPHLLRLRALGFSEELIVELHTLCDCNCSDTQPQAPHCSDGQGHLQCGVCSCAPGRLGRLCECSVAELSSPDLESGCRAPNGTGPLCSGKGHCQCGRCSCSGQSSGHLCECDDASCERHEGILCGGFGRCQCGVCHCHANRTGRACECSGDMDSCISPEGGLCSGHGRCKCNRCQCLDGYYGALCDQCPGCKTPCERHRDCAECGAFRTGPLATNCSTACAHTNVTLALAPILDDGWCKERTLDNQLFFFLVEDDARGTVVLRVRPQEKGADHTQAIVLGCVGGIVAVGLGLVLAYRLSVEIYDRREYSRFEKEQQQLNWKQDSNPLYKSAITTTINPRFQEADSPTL
Experiment: cell-based
Format: cell-based
Conditions: agonist = adhesion index >1, antagonist = adhesion index <1
From the text: mediated Jurkat cell adhesion to FN.
Starred links: 1 amine or outer side, 2 acyl side, 3 side chain; linkers in the order of their positions; H or OH if unused. Non-standard residues stand in square brackets, D forms with d. Residues, ends and D or L forms follow the SMILES beside them. *: point of attachment. X1 = O=C(Cc1ccc(N[*:1])cc1)[*:2]; NH(2-Me-phenyl) = Cc1ccccc1N*; CO = O=C([*:1])[*:2]
recorded-metric: agonist or antagonist behaviour, MAdCAM-1/RPMI8866 α4β7

compound | value-observed
Cc1ccccc1NC(=O)N1C(=O)CC1CC(=O)O (stereo not shown) | inactive
Cc1ccccc1NC(=O)Nc1ccc(CC(=O)N[C@@H](CC(C)C)C(=O)N[C@@H](CC(=O)O)C(=O)N[C@H](C(=O)N2CCC[C@H]2C(=O)O)C(C)C)cc1 [BIO1211, MPUPA-LDVP-OH] ({NH(2-Me-phenyl)-CO}-[X1]LDVP-OH) | inactive

###

Target: α4β1 integrin (Homo sapiens, UniProt P05556+P13612)
Test: Jurkat E6.1 cell adhesion to FN
Conditions: read-out: EC50 for agonists, FN/Jurkat E6.1 α4β1; increase of cell adhesion; mean ± SD, three experiments in quadruplicate
recorded-metric: pEC50
Scale explanation: pEC50 corresponds to minus log10 of a concentration expressed in moles per litre.

For Cc1ccccc1NC(=O)N1C(=O)CC1CC(=O)O (stereo not shown) [1a] , what is its reported pEC50?
7.81

###

Biological target: α5β1 integrin (Homo sapiens, UniProt P05556+P08648)
Assay: Competitive solid-phase binding assay, purified α5β1 / FN
Conditions: read-out: Binding affinity IC50, α5β1/FN
# key: entry, value: IC50

molecule | IC50
Cc1ccccc1NC(=O)N1C(=O)CC1CC(=O)O (centres unmarked) [1a] | > 5000 nM

Continue with the next molecule.
For Cc1ccccc1NC(=O)N1C(=O)CC1CC(=O)NCC(=O)O (centres unmarked) [1b] , what is its reported IC50?
49 nM

###

Target: α4β1 integrin (Homo sapiens, UniProt P05556+P13612)
Assay: Competitive solid-phase binding assay, purified α4β1 / FN
Set-up: purchased R&D Systems
Settings: mean ± SD, three experiments in triplicate, read-out: Binding affinity IC50, α4β1/FN
recorded-metric: IC50 (nM)
Return type: number; implicit unit nM.

Which IC50 is reported with α4β1 integrin (Homo sapiens, UniProt P05556+P13612) for this entry: Cc1ccccc1NC(=O)N1C(=O)CC1CC(=O)O (centres unmarked) ?
13.3

###

Target: α4β7 integrin (Homo sapiens, UniProt P13612+P26010)
Construct: RPMI8866 cells expressing α4β7 integrin to the ligand MAdCAM-1; endogenous in cells; host or cells: RPMI8866
Assay: cell-based
Assay type: cell-based
Details: reduction of cell adhesion; >5000 = inactive compounds (IC50/EC50); read-out: IC50 for antagonists, MAdCAM-1/RPMI8866 α4β7
pIC50: −log10 of the molar value.
recorded-metric: pIC50

molecule | value-observed
Cc1ccccc1NC(=O)N1C(=O)CC1CC(=O)O (centres unmarked) | < 5.30

Continue with the next molecule.
For Cc1ccccc1NC(=O)N1C(=O)CC1CC(=O)NCC(=O)O (centres unmarked) , what is its reported pIC50?
< 5.30

###

Target: αMβ2 integrin (Homo sapiens, UniProt P05107+P11215)
Assay: HL60 cell adhesion to fibrinogen (Fg)
Assay type: cell-based
Settings: read-out: IC50 for antagonists, Fg/HL60 αMβ2
pIC50: −log10 of the molar value.
recorded-metric: pIC50

compound | pIC50
Cc1ccccc1NC(=O)N1C(=O)CC1CC(=O)O (centres unmarked) [1a] | < 5.30

For Cc1ccccc1NC(=O)N1C(=O)CC1CC(=O)NCC(=O)O (centres unmarked) [1b] , what is its reported pIC50?
< 5.30

###

Biological target: α4β1 integrin (Homo sapiens, UniProt P05556+P13612)
Experiment: Competitive solid-phase binding assay, purified α4β1 / VCAM-1
Design: purchased R&D Systems
Settings: read-out: Binding affinity IC50, α4β1/VCAM-1
recorded-metric: IC50 (nM)
Return type: number; implicit unit nM.

For Cc1ccccc1NC(=O)N1C(=O)CC1CC(=O)O (centres unmarked) , what is its reported IC50?
10.1

###

Biological target: αMβ2 integrin (Homo sapiens, UniProt P05107+P11215)
Assay: Competitive solid-phase binding assay, purified αMβ2 / fibrinogen
Set-up: purchased R&D Systems
Conditions: read-out: Binding affinity IC50, αMβ2/Fg
recorded-metric: IC50

compound | system-under-test | IC50
Cc1ccccc1NC(=O)N1C(=O)CC1CC(=O)NCC(=O)O (centres unmarked) | αMβ2 integrin (Homo sapiens, UniProt P05107+P11215) | > 5 µM

Continue with the next compound.
For Cc1ccccc1NC(=O)N1C(=O)CC1CC(=O)O (centres unmarked) , what is its reported IC50?
> 5 µM
